# Test system: PC-12 cells
# Procedure Text: Neutral red uptake (NRU) cytotoxicity assay
# Assay type: cell-based
# Condition Label: 12 h incubation
Readout Label: CC50 (µM)

[[record]]
test_smiles = "O=c1c(O)c(-c2cc(O)c(O)c(O)c2)oc2cc(O)cc(O)c12"
endpoint_value = 66.4


----------
# Procedure Text: Determination of 1-octanol/water partition coefficients (logP)
# Format: physicochemical
# Condition Label: 1-octanol/water (DDW); 1-octanol/DDW, 25 °C
Readout Label: logP at 5 min

[[record]]
test_smiles = "O=c1c(O)c(-c2cc(O)c(O)c(O)c2)oc2cc(O)cc(O)c12"
readout_label = "logP at 5 min"
endpoint_value = 1.34

